Where do the numbers come from? From ChEMBL document CHEMBL3988442.

- Test system: Leishmania donovani
- assayRemarks: Leishmania intramacrophage assay
- Format: functional, organism-based
- Set-up: scale not given: in the data most compounds retested in dose-response had high values
- cond: 30.3 µM; […]
Screen size: about 69,000 compounds; about 1,000 (1.4%) showed an effect of 50% or more. This is one part of a sample in which strong results are shown more often than they occur.
// -1 strictly below 50% in Percent Effect; 1 otherwise

| molecule | labelValue |
| --- | --- |
| COCC1CCCCN1C(=O)c1cc(-c2cccc(OC)c2)n[nH]1 (stereo not given) | -1 |
| O=C(O)Cc1cccc(-n2ccnc2-c2ccc(Cl)s2)c1 | -1 |
| O=C(O)C(F)(F)F.c1cnc(NC2COC3(CCN(Cc4cccs4)CC3)C2)nc1 (stereo not given) | -1 |
| CCc1c(C)nc(C)nc1N1C[C@@H](CN(C)C)[C@@H](CO)C1 | 1 |
| Fc1cnc(N2CCOC3(CCN(Cc4cccs4)CC3)C2)nc1.O=C(O)C(F)(F)F.O=C(O)C(F)(F)F | 1 |

###

The compounds listed here are annotated with their Percent Effect.
- System: Leishmania donovani
- assayRemarks: Leishmania intramacrophage assay
- Type: functional, organism-based
- Parameters: scale not given: in the data most compounds retested in dose-response had high values
- cond: 30.3 µM; […]
Out of some 69,000 compounds screened, about 1,000 (1.4%) showed an effect of 50% or more. The sample as a whole holds a higher share of strong results than the screen did.

| compound | targetSystem | Percent Effect (%) |
| --- | --- | --- |
| Cc1nc(C)c(C)c(N2CCC(NCCOc3ccccc3)CC2)n1 | Leishmania donovani | 58.55 |
| Cc1cc(N2CCC(NCCOc3ccccc3)CC2)nc(C)n1 | Leishmania donovani | 53.39 |
| CCOc1ccc(NC(C)=O)cc1S(=O)(=O)Nc1ccon1 | Leishmania donovani | 32.01 |
| O=C(COCCOc1ccccc1)NC1CCN(c2ncccn2)CC1 | Leishmania donovani | 21.86 |
| CN(C)c1ccnc(N2CCC(NCCOc3ccccc3)CC2)n1 | Leishmania donovani | 79.37 |
| Cc1cc(N2CCC(N(C)C(=O)c3ccccc3F)CC2)nc(C)n1 | Leishmania donovani | 35.99 |
| Cc1cc(N2CCC(O)CC2)nc(C)n1 | Leishmania donovani | 1.581 |
| CN1CCOC(CNCC(=O)NCCC2=CCCCC2)C1 (stereo unspecified) | Leishmania donovani | 0.5751 |
| Cc1cc(N2CCC(N(C)C(=O)c3ccc(C#N)cc3)CC2)nc(C)n1 | Leishmania donovani | 14.71 |
| CN1CCC(N2CCC(C(=O)N(C)C)CC2)CC1.O=C(O)C(F)(F)F.O=C(O)C(F)(F)F | Leishmania donovani | 15.52 |
| CCNC(=O)NC1CCN(c2ccc(S(=O)(=O)CC)cc2)CC1 | Leishmania donovani | 12.14 |

###

// reported Percent Effect for each item listed
- System: Leishmania donovani
- assayRemarks: Leishmania intramacrophage assay
- Assay type: functional, organism-based
- Design: scale not given: in the data most compounds retested in dose-response had high values
- cond: 30.3 µM; […]
In all, about 69,000 compounds went through this assay and about 1,000 (1.4%) showed an effect of 50% or more. The full list was thinned out, with strong results kept by preference.
propertyLabel: Percent Effect (%)

| compound | measured |
| --- | --- |
| Cc1c(CN2CC[C@@H](N3CCC(O)CC3)[C@H](O)C2)[nH]c2ccc(Cl)cc12 | 82.7 |
| CN(C)CCN1CC[C@@H]2[C@@H]1CCN2C(=O)c1cccc(Cl)c1 | 54.02 |
| CN(C)C1CCC2(CCN(Cc3nccn3C)CC2)c2ccccc21.O=C(O)C(F)(F)F.O=C(O)C(F)(F)F (stereo not given) | 15.24 |
| Cc1c(CN2CC[C@@H](N3CCC(O)CC3)[C@H](O)C2)[nH]c2ccc(F)cc12 | 26.65 |
| COC[C@@]12CCC[C@@H]1CN(C(=O)CN(C)C)C2.O=C(O)C(F)(F)F | 2.882 |

###

- Test system: Leishmania donovani
- assayRemarks: Leishmania intramacrophage assay
- Format: functional, organism-based
- Set-up: scale not given: in the data most compounds retested in dose-response had high values
- cond: 30.3 µM; […]
Hit rate of the full screen: of about 69,000 compounds, about 1,000 (1.4%) showed an effect of 50% or more. For the sample, strong results were picked, then their nearest neighbours and some compounds at random.

| smilesRepr | Percent Effect (%) |
| --- | --- |
| CCCN1CCC(Cc2noc(-c3cc4cccnc4nc3C)n2)CC1 | 32.81 |
| COC(=O)c1cccc(-c2nc(CC3CCN(C)CC3)no2)c1 | 10.91 |
| CCCN1CCC(Cc2noc(-c3cccnc3OC)n2)CC1 | 57.42 |
| COc1ccc(C)cc1CNC(=O)C1=NN(c2ccccc2)C(=O)CN1 | 34.24 |
| CN1CCC(Cc2noc(-c3cccc4c3OCC4)n2)CC1 | 31.67 |
| CCCN1CCC(Cc2noc(-c3ncccc3C)n2)CC1 | 17.75 |

###

- System: Leishmania donovani
- assayRemarks: Leishmania intramacrophage assay
- Type: functional, organism-based
- Set-up: scale not given: in the data most compounds retested in dose-response had high values
- cond: 30.3 µM; […]
Screen size: about 69,000 compounds; about 1,000 (1.4%) showed an effect of 50% or more. Only a selection was taken, and strong results are over-represented in it overall.
Each entry gets 0 if its Percent Effect stays under 30%, and 1 if its Percent Effect is 30% or above.

| molecule | labelValue |
| --- | --- |
| NCCc1n[nH]c(=O)n1-c1cccc2ccccc12 | 0 |
| O=C(c1nnn(-c2ccc(F)cc2)n1)N1CCC(O)CC1 | 0 |
| Cc1sc2ncnc(N3CCC(N(C)Cc4cnn(C)c4)CC3)c2c1C | 1 |
| CN(Cc1n[nH]c2c1CCC2)C(=O)c1cccc(CCC(C)(C)O)c1 | 1 |
| Cc1ccc(S(N)(=O)=O)cc1C(=O)NC1CCCC1 | 1 |
| Cc1nn(CCC#N)c(C)c1CCC(=O)N(C)Cc1ccc(F)cc1F | 0 |
| CCCc1cc(C(=O)N[C@@H](CO)[C@@H](O)c2ccccc2)n(C)n1 | 0 |
| Cc1cc2c(N3CCC(N(C)Cc4cnn(C)c4)CC3)ncnc2s1 | 1 |
| Cc1nc(N(C)C)nc(-c2cccc(-c3ccn(CCCF)n3)c2)c1C | 0 |
| O=C(c1cscn1)N1CCCCC1c1nc2cc(F)ccc2[nH]1 (stereo not drawn) | 0 |
| Cc1ccc2cc(C3(O)CCN(C(=O)CSC(C)C)CC3)ccc2n1 | 0 |
| Cc1noc(C)c1CN1CCOCC12CCN(c1cnccn1)CC2.O=C(O)C(F)(F)F | 1 |
| CC(C)c1n[nH]c(C2CN(Cc3ncc[nH]3)CCO2)n1 (stereo not drawn) | 0 |
| CN(Cc1n[nH]c2c1CCCC2)C(=O)c1cccc(CCC(C)(C)O)c1 | 0 |
| COc1cc(-c2cc(C3CCOC3)c(C#N)c(N)n2)ccc1O (stereo not drawn) | 0 |
| CCc1ccc(CN2C[C@@H](c3nc(C)no3)C[C@H]3OCC[C@H]32)o1.O=C(O)C(F)(F)F | 0 |
| Cc1nccn1CCCN1CCCC(c2nccn2CC2CCC2)C1 (stereo not drawn) | 0 |
| Cc1nccn1CCCN1CCCC(c2nccn2C)C1 (stereo not drawn) | 0 |
| COCc1nc(CNc2cccc(-c3csc(C)n3)c2)cs1 | 0 |
| Cc1nccn1CCCN1CCCC(c2ccccc2)C1 (stereo not drawn) | 1 |
| CCN1CCOCC12CCN(c1cnccn1)CC2.O=C(O)C(F)(F)F | 0 |
| COC[C@@]12CC[C@@H](N3CCOCC3)C[C@H]1CCN(c1ncccc1C)C2 | 0 |
| CC(=O)N1CCC(NC(=O)c2cc(S(N)(=O)=O)ccc2C)CC1 | 0 |

###

- Tested on: Leishmania donovani
- assayRemarks: Leishmania intramacrophage assay
- Assay type: functional, organism-based
- Parameters: scale not given: in the data most compounds retested in dose-response had high values
- cond: 30 µM; 30.03 µM
About 1,000 (1.4%) of roughly 69,000 compounds showed an effect of 50% or more. Only a selection was taken, and strong results are over-represented in it overall.
propertyLabel: Percent Effect

| compound | propertyLabel | measured |
| --- | --- | --- |
| Cc1csc(N2CCN(Cc3cnc(C)s3)CC2C)n1 (stereo unspecified) | Percent Effect | 50.44% |
| CN(C)C(CNC(=O)c1cccc(-n2cnnn2)c1)c1ccccc1Cl (stereo unspecified) | Percent Effect | -12.85% |
| O=C(NCC(O)c1ccccc1Cl)c1cccc(-n2cnnn2)c1 (stereo unspecified) | Percent Effect | 18.08% |
| NC(=O)C(CNC(=O)Cc1ccc(F)cc1)Cc1ccc(F)cc1 (stereo unspecified) | Percent Effect | 16.98% |
| O=C(CSc1ncccn1)N1C[C@H]2CC[C@@H]1CN(Cc1ccncc1)C2 | Percent Effect | 54.88% |
| CSCCC1c2nc[nH]c2CCN1Cc1cc(Cl)ccc1O (stereo unspecified) | Percent Effect | 8.861% |
| O=C(CSc1ccncc1)N1C[C@H]2CC[C@@H]1CN(Cc1cccnc1)C2 | Percent Effect | 35.98% |
| Cc1ccc(CNC(CN2CCN(C)CC2)c2ccccc2)cc1 (stereo unspecified) | Percent Effect | 94.58% |
| Cc1nc(CNCC2CN(C)CCO2)cs1 (stereo unspecified) | Percent Effect | 33.12% |
| Cc1noc(C)c1C(=O)N(C)Cc1nc(-c2ccccn2)no1 | Percent Effect | 21.79% |
| COc1cc(CNCCc2nc(C)cs2)cc2c1OCCO2.Cl | Percent Effect | 9.472% |
